# Test system: Staphylococcus aureus
# assay.overview: conventional broth-dilution microtiter test, MIC
# Format: cell-based
For each of the molecules below, state its MIC (minimal inhibitory concentration).
Numbers only.

// input: 4 molecules below; output: MIC (minimal inhibitory concentration) for each
1. CCC(=O)OCC1C=C(C)C=CC(=O)C(C)CC(CC=O)C(OC2OC(C)C(OC3CC(C)(O)C(OC(=O)CC)C(C)O3)C(N(C)C)C2O)C(C)C(OC(=O)CC)CC(=O)OC1CC (stereo not shown)
2. CCC(=O)OC1C(C)OC(OC2C(C)OC(OC3C(CC=O)CC(C)C(=O)C=CC(C)=CC(COC(=O)C(Cl)(Cl)Cl)C(CC)OC(=O)CC(O)C3C)C(OC(C)=O)C2N(C)C)CC1(C)O (stereo not shown)
3. CCC(=O)OCC1C=C(C)C=CC(=O)C(C)CC(CC=O)C(OC2OC(C)C(OC3CC(C)(O)C(OC(=O)CC)C(C)O3)C(N(C)C)C2OC(C)=O)C(C)C(O)CC(=O)OC1CC (stereo not shown)
4. CCC1OC(=O)CC(O)C(C)C(OC2OC(C)C(OC3CC(C)(O)C(OC(C)=O)C(C)O3)C(N(C)C)C2O)C(CC=O)CC(C)C(=O)C=CC(C)=CC1COC(C)=O (stereo not shown)

1: 1.56; 2: 1.56; 3: 0.78; 4: 0.78

###

# Test system: Staphylococcus aureus
# assay.overview: conventional broth-dilution microtiter test, MIC
# Assay type: cell-based
measured.property: MIC (minimal inhibitory concentration)
Numbers only.

Solved entries (count: 8):
CCC(=O)OC1CC(=O)OC(CC)C(C)C=C(C)C=CC(=O)C(C)CC(CC=O)C(OC2OC(C)C(OC3CC(C)(O)C(OC(=O)CC)C(C)O3)C(N(C)C)C2O)C1C (stereo not drawn)	1.56
CCC1OC(=O)CC(O)C(C)C(OC2OC(C)C(OC3CC(C)(O)C(OC(=O)Cc4ccccc4)C(C)O3)C(N(C)C)C2OC(C)=O)C(CC=O)CC(C)C(=O)C=CC(C)=CC1C (stereo not drawn)	25
CCC1OC(=O)CC(O)C(C)C(OC2OC(C)C(OC3CC(C)(O)C(OC(=O)Cc4ccccc4)C(C)O3)C(N(C)C)C2O)C(CC=O)CC(C)C(=O)C=CC(C)=CC1C (stereo not drawn)	12.5
CCC(=O)OC1C(C)OC(OC2C(C)OC(OC3C(CC=O)CC(C)C(=O)C=CC(C)=CC(C)C(CC)OC(=O)CC(O)C3C)C(O)C2N(C)C)CC1(C)O (stereo not drawn)	0.78
CCC1OC(=O)CC(O)C(C)C(OC2OC(C)C(OC3CC(C)(O)C(OC(C)=O)C(C)O3)C(N(C)C)C2OC(C)=O)C(CC=O)CC(C)C(=O)C=CC(C)=CC1COC(C)=O (stereo not drawn)	3.12
CCC(=O)OCC1C=C(C)C=CC(=O)C(C)CC(CC=O)C(OC2OC(C)C(OC3CC(C)(O)C(OC(=O)CC)C(C)O3)C(N(C)C)C2OC(C)=O)C(C)C(OC(=O)CC)CC(=O)OC1CC (stereo not drawn)	1.56
CCC(=O)OCC1C=C(C)C=CC(=O)C(C)CC(CC=O)C(OC2OC(C)C(OC3CC(C)(O)C(OC(=O)CC)C(C)O3)C(N(C)C)C2O)C(C)C(O)CC(=O)OC1CC (stereo not drawn)	0.78
CCC(=O)OC1CC(=O)OC(CC)C(C)C=C(C)C=CC(=O)C(C)CC(CC=O)C(OC2OC(C)C(OC3CC(C)(O)C(OC(=O)CC)C(C)O3)C(N(C)C)C2OC(C)=O)C1C (stereo not drawn)	1.56

Read the next record carefully.
Provide the reported MIC (minimal inhibitory concentration) (system: Staphylococcus aureus) for CCC(=O)OC1C(C)OC(OC2C(C)OC(OC3C(CC=O)CC(C)C(=O)C=CC(C)=CC(C)C(CC)OC(=O)CC(O)C3C)C(OC(C)=O)C2N(C)C)CC1(C)O (stereo not drawn) 3.12

###

# System: Streptococcus pneumoniae Park I
# assay.overview: standard agar-dilution assay, MIC
# Type: cell-based
Kindly state MIC (minimal inhibitory concentration) for each of the entries shown.
Numbers only.

CCC(=O)OCC1C=C(C)C=CC(=O)C(C)CC(CC=O)C(OC2OC(C)C(OC3CC(C)(O)C(OC(=O)CC)C(C)O3)C(N(C)C)C2O)C(C)C(OC(=O)CC)CC(=O)OC1CC (stereo not drawn)	0.125
CCC(=O)OC1C(C)OC(OC2C(C)OC(OC3C(CC=O)CC(C)C(=O)C=CC(C)=CC(C)C(CC)OC(=O)CC(O)C3C)C(OC(C)=O)C2N(C)C)CC1(C)O (stereo not drawn)	0.125
CCC1OC(=O)CC(O)C(C)C(OC2OC(C)C(OC3CC(C)(O)C(OC(=O)Cc4ccccc4)C(C)O3)C(N(C)C)C2OC(C)=O)C(CC=O)CC(C)C(=O)C=CC(C)=CC1C (stereo not drawn)	32

Respectfully, I request MIC (minimal inhibitory concentration) for each entry included below.
1. CCC1OC(=O)CC(O)C(C)C(OC2OC(C)C(OC3CC(C)(O)C(OC(=O)C(Cl)(Cl)Cl)C(C)O3)C(N(C)C)C2OC(C)=O)C(CC=O)CC(C)C(=O)C=CC(C)=CC1COC(=O)C(Cl)(Cl)Cl (stereo not drawn)
2. CCC(=O)OCC1C=C(C)C=CC(=O)C(C)CC(CC=O)C(OC2OC(C)C(OC3CC(C)(O)C(OC(=O)CC)C(C)O3)C(N(C)C)C2OC(C)=O)C(C)C(O)CC(=O)OC1CC (stereo not drawn)
3. CCC1OC(=O)CC(O)C(C)C(OC2OC(C)C(OC3CC(C)(O)C(OC(=O)CC(C)C)C(C)O3)C(N(C)C)C2O)C(CC=O)CC(C)C(=O)C=CC(C)=CC1C (stereo not drawn)

1. 0.25
2. 0.125
3. 0.03

###

# Tested on: Streptococcus pyogenes C203
# assay.overview: standard agar-dilution assay, MIC
# Assay type: cell-based
measured.property: MIC (minimal inhibitory concentration)
One number for each entry.

CCC1OC(=O)CC(O)C(C)C(OC2OC(C)C(OC3CC(C)(O)C(OC(=O)Cc4ccccc4)C(C)O3)C(N(C)C)C2OC(C)=O)C(CC=O)CC(C)C(=O)C=CC(C)=CC1C (stereo not drawn)	128
CCC(=O)OC1C(C)OC(OC2C(C)OC(OC3C(CC=O)CC(C)C(=O)C=CC(C)=CC(CO)C(CC)OC(=O)CC(O)C3C)C(O)C2N(C)C)CC1(C)O (stereo not drawn)	0.125
CCC(=O)OC1CC(=O)OC(CC)C(C)C=C(C)C=CC(=O)C(C)CC(CC=O)C(OC2OC(C)C(OC3CC(C)(O)C(OC(=O)CC)C(C)O3)C(N(C)C)C2O)C1C (stereo not drawn)	0.5

Could I get MIC (minimal inhibitory concentration) for every one of these entries?
1. CCC1OC(=O)CC(O)C(C)C(OC2OC(C)C(OC3CC(C)(O)C(OC(=O)CC(C)C)C(C)O3)C(N(C)C)C2OC(C)=O)C(CC=O)CC(C)C(=O)C=CC(C)=CC1C (stereo not drawn)
2. CCC(=O)OC1C(C)OC(OC2C(C)OC(OC3C(CC=O)CC(C)C(=O)C=CC(C)=CC(C)C(CC)OC(=O)CC(O)C3C)C(OC(C)=O)C2N(C)C)CC1(C)O (stereo not drawn)

[0.5, 0.25]

###

# System: Streptococcus pneumoniae Park I
# assay.overview: standard agar-dilution assay, MIC
# Assay type: cell-based
measured.property: MIC (minimal inhibitory concentration)
Numbers only.

Consider the reported MIC (minimal inhibitory concentration) for these compounds:
CCC1OC(=O)CC(O)C(C)C(OC2OC(C)C(OC3CC(C)(O)C(OC(=O)Cc4ccccc4)C(C)O3)C(N(C)C)C2O)C(CC=O)CC(C)C(=O)C=CC(C)=CC1C (stereo not drawn) [Compound 21, 4"-O-Phenylacetyl-DMOT]	0.5
CCC(=O)OC1CC(=O)OC(CC)C(C)C=C(C)C=CC(=O)C(C)CC(CC=O)C(OC2OC(C)C(OC3CC(C)(O)C(OC(=O)CC)C(C)O3)C(N(C)C)C2O)C1C (stereo not drawn) [Compound 25, 3,4"-Di-O-propionyl-DMOT]	0.25
CCC(=O)OC1CC(=O)OC(CC)C(C)C=C(C)C=CC(=O)C(C)CC(CC=O)C(OC2OC(C)C(OC3CC(C)(O)C(OC(=O)CC)C(C)O3)C(N(C)C)C2OC(C)=O)C1C (stereo not drawn) [Compound 23, 2'-O-Acetyl-3,4"-Di-O-Propionyl-DMOT]	0.06
CCC1OC(=O)CC(O)C(C)C(OC2OC(C)C(OC3CC(C)(O)C(OC(C)=O)C(C)O3)C(N(C)C)C2O)C(CC=O)CC(C)C(=O)C=CC(C)=CC1COC(C)=O (stereo not drawn) [Compound 2, 23,4"-Di-O-Acetyl-DMT]	0.125
CCC(=O)OC1C(C)OC(OC2C(C)OC(OC3C(CC=O)CC(C)C(=O)C=CC(C)=CC(COC(=O)C(Cl)(Cl)Cl)C(CC)OC(=O)CC(O)C3C)C(OC(C)=O)C2N(C)C)CC1(C)O (stereo not drawn) [Compound 14]	0.125

Hi team, please reply with MIC (minimal inhibitory concentration) for each item in this list.
1. CCC1OC(=O)CC(O)C(C)C(OC2OC(C)C(OC3CC(C)(O)C(OC(=O)COc4ccccc4)C(C)O3)C(N(C)C)C2OC(C)=O)C(CC=O)CC(C)C(=O)C=CC(C)=CC1COC(=O)COc1ccccc1 (stereo not drawn) [Compound 7, 2'-O-Acetyl-4",23-Di-O-Phenoxyacetyl-DMT]
2. CCC1OC(=O)CC(OC(=O)C(Cl)(Cl)Cl)C(C)C(OC2OC(C)C(OC3CC(C)(O)C(O)C(C)O3)C(N(C)C)C2OC(C)=O)C(CC=O)CC(C)C(=O)C=CC(C)=CC1COC(=O)C(Cl)(Cl)Cl (stereo not drawn) [Compound 12]
3. CCC(=O)OC1C(C)OC(OC2C(C)OC(OC3C(CC=O)CC(C)C(=O)C=CC(C)=CC(C)C(CC)OC(=O)CC(O)C3C)C(O)C2N(C)C)CC1(C)O (stereo not drawn) [Compound 24, 4"-O-Propionyl-DMOT]

1. 1
2. 0.125
3. 0.125

Give a short answer stating reported MIC (minimal inhibitory concentration) for CCC1OC(=O)CC(OC(=O)C(Cl)(Cl)Cl)C(C)C(OC2OC(C)C(OC3CC(C)(O)C(OC(=O)C(Cl)(Cl)Cl)C(C)O3)C(N(C)C)C2OC(C)=O)C(CC=O)CC(C)C(=O)C=CC(C)=CC1COC(=O)C(Cl)(Cl)Cl (stereo not drawn) [Compound 13] . 2
